MEASURED_ON: UniProt Q13043
MEASUREMENT_PROTOCOL: In vitro measurement of MST1 inhibition (Z′-Lyte kinase assay)
Type: biochemical
APPLIED_CONDITIONS: 1 μM ATP; read-out: IC50 (μM) 1 μM ATP

[
  {
    "MOLECULE": "N#CC1(c2ccc(-c3cnc(N)c(-c4ccc5c(c4)CCNC5=O)n3)cc2)CC1",
    "IC50": "< 0.05 µM"
  },
  {
    "MOLECULE": "Cn1cc(-c2cnc(N)c(-c3ccc4c(c3)CCNC4=O)n2)cn1",
    "IC50": "< 0.15 µM"
  },
  {
    "MOLECULE": "Cc1cc(-c2cnc(N)c(-c3ccc4c(c3)OCCNC4=O)n2)ccc1S(=O)(=O)NC1CC1",
    "IC50": "< 0.05 µM"
  },
  {
    "MOLECULE": "Cc1cc(-c2cnc(N)c(-c3ccc4c(c3)CCNC4=O)c2)ccc1S(=O)(=O)N(C)C1CC1",
    "IC50": "< 0.01 µM"
  },
  {
    "MOLECULE": "Nc1ncc(-c2ccc(S(=O)(=O)NC3CC3)cc2)nc1-c1ccc2c(c1)OCCNC2=O",
    "IC50": "< 0.01 µM"
  },
  {
    "MOLECULE": "[2H]C1([2H])CNC(=O)c2ccc(-c3nc(-c4ccc(S(=O)(=O)N(C5CC5)C([2H])([2H])[2H])cc4)cnc3N)cc21",
    "IC50": "< 0.01 µM"
  },
  {
    "MOLECULE": "CNC(=O)N1CCc2cc(-c3nc(-c4ccc(S(=O)(=O)N(C)C5CC5)cc4)cnc3N)ccc21",
    "IC50": "< 0.05 µM"
  },
  {
    "MOLECULE": "CCN(CC)S(=O)(=O)c1ccc(-c2cnc(N)c(-c3ccc4c(O)ncnc4c3)c2)cc1",
    "IC50": "< 0.05 µM"
  },
  {
    "MOLECULE": "CC1(C)CNC(=O)c2ccc(-c3nc(-c4ccc(C5(C#N)CCOCC5)cc4)cnc3N)cc21",
    "IC50": "< 0.01 µM"
  },
  {
    "MOLECULE": "CCS(=O)(=O)Nc1ccc(-c2cnc(N)c(-c3ccc4c(c3)CCNC4=O)c2)cc1",
    "IC50": "< 0.05 µM"
  },
  {
    "MOLECULE": "CC1(C)CNC(=O)c2ccc(-c3cc(-c4ccc(S(=O)(=O)NC5CC5)cc4)cnc3N)cc21",
    "IC50": "< 0.01 µM"
  },
  {
    "MOLECULE": "Nc1ncc(-c2ccc(S(=O)(=O)NC3CC3)cc2)nc1-c1ccc2c(c1)C1(CC1)NC2=O",
    "IC50": "< 0.05 µM"
  },
  {
    "MOLECULE": "CN(C1CC1)S(=O)(=O)c1ccc(-c2cnc(N)c(-c3ccc4c(c3)CCCCC(=O)N4)c2)cc1",
    "IC50": "< 0.15 µM"
  },
  {
    "MOLECULE": "CN(C1CC1)S(=O)(=O)c1ccc(-c2cnc(N)c(-c3ccc4c(=O)[nH]ccc4c3)n2)cc1",
    "IC50": "< 0.01 µM"
  },
  {
    "MOLECULE": "Nc1ncc(-c2ccc(S(=O)(=O)NC3CC3)cc2)nc1-c1ccc2c(c1)C1(CC1)CNC2=O",
    "IC50": "< 0.01 µM"
  },
  {
    "MOLECULE": "CN(Cc1ccc(-c2cnc(N)c(-c3ccc4c(c3)CCNC4=O)c2)cc1)C1CC1",
    "IC50": "< 0.05 µM"
  },
  {
    "MOLECULE": "Nc1ncc(-c2ccc(S(F)(F)(F)(F)F)cc2)nc1-c1ccc2c(c1)CCNC2=O",
    "IC50": "< 0.15 µM"
  },
  {
    "MOLECULE": "CN(C1CC1)S(=O)(=O)c1ccc(-c2cnc(N)c(-c3cc4c(cn3)C(=O)NCC4)c2)cc1",
    "IC50": "< 0.01 µM"
  },
  {
    "MOLECULE": "CN(C1CC1)S(=O)(=O)c1ccc(-c2cnc(N)c(-c3ccc4c(c3)CCNC4=O)n2)cc1",
    "IC50": "< 0.01 µM"
  },
  {
    "MOLECULE": "[2H]C([2H])([2H])N(C([2H])([2H])[2H])S(=O)(=O)c1ccc(-c2cnc(N)c(-c3ccc4c(c3)CCNC4=O)n2)cc1",
    "IC50": "< 0.01 µM"
  },
  {
    "MOLECULE": "Nc1ncc(-c2ccc(S(=O)(=O)NC3CC3)cc2)cc1-c1ccc2c(c1)CCCNC2=O",
    "IC50": "< 0.01 µM"
  },
  {
    "MOLECULE": "CN(C1CC1)S(=O)(=O)c1ccc(-c2cnc(N)c(-c3ccc4c(c3)C(C)(C)NC4=O)c2)cc1",
    "IC50": "< 0.01 µM"
  },
  {
    "MOLECULE": "CN(C1CC1)S(=O)(=O)c1ccc(-c2cnc(N)c(-c3ccc4c(c3)CCNC4=O)c2)cc1",
    "IC50": "< 0.01 µM"
  },
  {
    "MOLECULE": "CN(C1CC1)S(=O)(=O)c1ccc(-c2cnc(N)c(-c3ccc4c(c3)C(C)(C)CNC4=O)n2)cc1",
    "IC50": "< 0.01 µM"
  },
  {
    "MOLECULE": "CN(C1CC1)S(=O)(=O)c1ccc(-c2cnc(N)c(-c3ccc4c(c3)OCCNC4=O)n2)cc1",
    "IC50": "< 0.01 µM"
  },
  {
    "MOLECULE": "CCN(C)S(=O)(=O)c1ccc(-c2cnc(N)c(-c3cc4c(s3)C(=O)NCC4)c2)cc1",
    "IC50": "< 0.05 µM"
  },
  {
    "MOLECULE": "CC(Oc1ccc(-c2cnc(N)c(-c3ccc4c(c3)CCNC4=O)n2)cc1)C1CC1 (centres unmarked)",
    "IC50": "< 0.05 µM"
  },
  {
    "MOLECULE": "C[C@@H]1COc2cc(-c3cc(-c4ccc(S(=O)(=O)N(C)C5CC5)cc4)cnc3N)ccc2C(=O)N1",
    "IC50": "< 0.01 µM"
  },
  {
    "MOLECULE": "CN(C1CC1)S(=O)(=O)c1ccc(-c2cnc(N)c(-c3cc4c(cn3)C(=O)NCC4)n2)cc1",
    "IC50": "< 0.01 µM"
  },
  {
    "MOLECULE": "C[C@@H]1C[C@H]1N(C)S(=O)(=O)c1ccc(-c2cnc(N)c(-c3ccc4c(c3)CCNC4=O)n2)cc1",
    "IC50": "< 0.01 µM"
  },
  {
    "MOLECULE": "Nc1ncc(-c2ccc(S(=O)(=O)N3CCCC34CC4)cc2)cc1-c1ccc2c(c1)CCNC2=O",
    "IC50": "< 0.05 µM"
  },
  {
    "MOLECULE": "Cc1cc(-c2cnc(N)c(-c3ccc4c(c3)CCNC4=O)n2)ccc1C(C)(C)C#N",
    "IC50": "< 0.05 µM"
  },
  {
    "MOLECULE": "Nc1ncc(-c2ccc(C(=O)C(F)(F)F)cc2)nc1-c1ccc2c(c1)CCNC2=O",
    "IC50": "< 0.15 µM"
  },
  {
    "MOLECULE": "CN(C)C(C)(C)c1ccc(-c2cnc(N)c(-c3ccc4c(c3)CCNC4=O)c2)cc1",
    "IC50": "< 0.05 µM"
  },
  {
    "MOLECULE": "CC1CNc2cc(-c3nc(-c4ccc(S(=O)(=O)N(C)C5CC5)cc4)cnc3N)ccc2C(=O)N1 (centres unmarked)",
    "IC50": "< 0.01 µM"
  }
]

----------
MEASURED_ON: MST1 (Homo sapiens)
Sequence (Q13043 whole entry): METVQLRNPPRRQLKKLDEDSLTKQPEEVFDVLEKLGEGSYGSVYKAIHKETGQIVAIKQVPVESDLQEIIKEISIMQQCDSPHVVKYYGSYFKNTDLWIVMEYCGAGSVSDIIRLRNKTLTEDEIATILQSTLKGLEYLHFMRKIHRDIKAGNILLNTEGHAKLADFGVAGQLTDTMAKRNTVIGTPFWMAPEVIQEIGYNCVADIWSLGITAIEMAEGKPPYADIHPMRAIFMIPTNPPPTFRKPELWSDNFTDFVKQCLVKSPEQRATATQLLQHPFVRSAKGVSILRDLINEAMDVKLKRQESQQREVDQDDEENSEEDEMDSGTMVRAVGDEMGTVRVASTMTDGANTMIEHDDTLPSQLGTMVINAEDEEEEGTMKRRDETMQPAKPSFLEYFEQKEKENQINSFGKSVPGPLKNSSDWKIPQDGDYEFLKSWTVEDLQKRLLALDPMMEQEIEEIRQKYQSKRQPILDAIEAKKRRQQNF
MEASUREMENT_PROTOCOL: In vitro measurement of MST1 inhibition (Z′-Lyte kinase assay)
Type: biochemical
APPLIED_CONDITIONS: 50 μM ATP; read-out: IC50 (μM) 50 μM ATP
Measured IC50 accompanies every entry in the list below.

[
  {
    "LINE_NOTATION": "N#CC1(c2ccc(-c3cnc(N)c(-c4ccc5c(c4)CCNC5=O)c3)cc2)CC1",
    "MEASURED_ON": "MST1 (Homo sapiens)",
    "IC50": "< 0.05 µM"
  },
  {
    "LINE_NOTATION": "CC(=O)NS(=O)(=O)c1ccc(-c2cnc(N)c(-c3ccc(C(N)=O)cc3)c2)cc1",
    "MEASURED_ON": "MST1 (Homo sapiens)",
    "IC50": "< 0.15 µM"
  },
  {
    "LINE_NOTATION": "COC(=O)CN(C)S(=O)(=O)c1ccc(-c2cnc(N)c(-c3ccc4c(c3)CCNC4=O)c2)cc1",
    "MEASURED_ON": "MST1 (Homo sapiens)",
    "IC50": "< 0.05 µM"
  },
  {
    "LINE_NOTATION": "CC1(C)CNC(=O)c2ccc(-c3cc(-c4ccc(S(=O)(=O)NC5CC5)cc4)cnc3N)cc21",
    "MEASURED_ON": "MST1 (Homo sapiens)",
    "IC50": "< 0.01 µM"
  },
  {
    "LINE_NOTATION": "CC(=O)NCc1ccc(-c2cnc(N)c(-c3ccc4c(c3)CCNC4=O)c2)cc1",
    "MEASURED_ON": "MST1 (Homo sapiens)",
    "IC50": "< 0.01 µM"
  },
  {
    "LINE_NOTATION": "Nc1ncc(-c2ccc(S(=O)(=O)NC3CC3)cc2)nc1-c1ncc(-c2ccccc2)[nH]1",
    "MEASURED_ON": "MST1 (Homo sapiens)",
    "IC50": "< 0.05 µM"
  },
  {
    "LINE_NOTATION": "CN(C1CC1)S(=O)(=O)c1ccc(-c2cnc(N)c(-c3ccc4c(c3)CCNC4=O)c2)cc1",
    "MEASURED_ON": "MST1 (Homo sapiens)",
    "IC50": "< 0.01 µM"
  },
  {
    "LINE_NOTATION": "C[C@H]1COc2cc(-c3cc(-c4ccc(S(=O)(=O)N(C)C5CC5)cc4)cnc3N)ccc2C(=O)N1",
    "MEASURED_ON": "MST1 (Homo sapiens)",
    "IC50": "< 0.01 µM"
  },
  {
    "LINE_NOTATION": "Nc1ncc(-c2ccc(F)cc2)cc1-c1ccc2c(c1)CCNC2=O",
    "MEASURED_ON": "MST1 (Homo sapiens)",
    "IC50": "< 0.05 µM"
  },
  {
    "LINE_NOTATION": "Nc1ncc(-c2ccc(S(=O)(=O)NC3CC3)cc2)nc1-c1ccc2c(c1)C1(CC1)CNC2=O",
    "MEASURED_ON": "MST1 (Homo sapiens)",
    "IC50": "< 0.01 µM"
  },
  {
    "LINE_NOTATION": "CN(C1CC1)S(=O)(=O)c1ccc(-c2cnc(N)c(-c3ccc4c(c3)C(C)(C)NC4=O)c2)cc1",
    "MEASURED_ON": "MST1 (Homo sapiens)",
    "IC50": "< 0.01 µM"
  },
  {
    "LINE_NOTATION": "Nc1ncc(-c2ccc(S(=O)(=O)NC3CC3)cc2)nc1-c1ccc2c(c1)C1(CC1)NC2=O",
    "MEASURED_ON": "MST1 (Homo sapiens)",
    "IC50": "< 0.01 µM"
  },
  {
    "LINE_NOTATION": "N#CC1(c2ccc(-c3cc(-c4ccc5c(c4)CCNC5=O)c(N)nn3)cc2)CC1",
    "MEASURED_ON": "MST1 (Homo sapiens)",
    "IC50": "< 0.15 µM"
  },
  {
    "LINE_NOTATION": "CC(C)(Oc1ccc(-c2cnc(N)c(-c3ccc4c(c3)CCNC4=O)n2)cc1)C(N)=O",
    "MEASURED_ON": "MST1 (Homo sapiens)",
    "IC50": "< 0.01 µM"
  },
  {
    "LINE_NOTATION": "Cc1cc(-c2cnc(N)c(-c3ccc4c(c3)CCNC4=O)n2)ccc1C(C)(C)C#N",
    "MEASURED_ON": "MST1 (Homo sapiens)",
    "IC50": "< 0.01 µM"
  },
  {
    "LINE_NOTATION": "Nc1ncc(-c2ccc(F)cc2)cc1-c1cc2c(cn1)C(=O)NCC2",
    "MEASURED_ON": "MST1 (Homo sapiens)",
    "IC50": "< 0.05 µM"
  },
  {
    "LINE_NOTATION": "CN(C1CC1)S(=O)(=O)c1ccc(-c2cnc(N)c(-c3ccc4c(c3)CCCCC(=O)N4)c2)cc1",
    "MEASURED_ON": "MST1 (Homo sapiens)",
    "IC50": "< 0.05 µM"
  },
  {
    "LINE_NOTATION": "CN(C1CC1)S(=O)(=O)c1ccc(-c2cnc(N)c(-c3ccc4c(c3)CCN(CCC#N)C4=O)c2)cc1",
    "MEASURED_ON": "MST1 (Homo sapiens)",
    "IC50": "< 0.05 µM"
  },
  {
    "LINE_NOTATION": "NC(=O)c1ccc(-c2cc(-c3ccc(CC(=O)N4CCCC4)cc3)cnc2N)cc1",
    "MEASURED_ON": "MST1 (Homo sapiens)",
    "IC50": "< 0.15 µM"
  }
]
